test system: UACC-257; assay: NCI tumour cell line growth inhibition, 48 h
Activity calls are given as the source filed them. Rule as the data show it: active = GI50 up to about 1.1 µM and inactive = higher.
# maps each entry to its GI50

>  <molecule>
O=C(Nc1ccc(Cl)cc1Cl)OC(Cn1cncn1)c1ccc(Cl)cc1Cl (stereo unspecified)

>  <reported measurement>
17 µM (inactive)

$$$$

Proceeding to the next molecule to report its GI50.
Qu. What reported GI50 corresponds to O=C(Nc1cccc2nsnc12)c1cc2c(cc1Cl)Sc1nccn1S2(=O)=O on UACC-257?
Ans. 1.81 µM (inactive)

---

tested on: SN12C; assay: NCI tumour cell line growth inhibition, 48 h
The source made the active and inactive calls. No stated cut-off is given here; in the data, active = GI50 up to about 1.1 µM and inactive = higher.
measured quantity: GI50

>  <molecule>
O=C1C(Cl)=C(NCCO)C(=O)c2c(O)ccc(O)c21

>  <measurement target>
SN12C

>  <measured quantity>
GI50

>  <reported measurement>
2.56 µM (inactive)

$$$$
>  <molecule>
CCOC(=O)CCC(NC(=O)OCc1ccccc1)C(=O)NC(CCC(=O)OCC)C(=O)NNC(=O)OC(C)(C)C (stereo not given)

>  <measurement target>
SN12C

>  <measured quantity>
GI50

>  <reported measurement>
> 100 µM (inactive)

$$$$
>  <molecule>
COc1cc(O)c2c(=O)c3ccccc3n(C)c2c1

>  <measurement target>
SN12C

>  <measured quantity>
GI50

>  <reported measurement>
> 100 µM (inactive)

$$$$
>  <molecule>
CC(=O)OCC1OC(n2cc(F)c(=O)[nH]c2=O)C(NC(=O)N(CCCl)N=O)C(OC(C)=O)C1OC(C)=O (stereo not given)

>  <measurement target>
SN12C

>  <measured quantity>
GI50

>  <reported measurement>
> 100 µM (inactive)

$$$$

Next up:
Qu. Identify the measured GI50 of O=c1c(C(c2ccc(O)cc2)c2c(O)oc3ccccc3c2=O)c(O)oc2ccccc12 for SN12C.
Ans. 56.8 µM (inactive)
